// pIC50 collected for PIK3CD (Human) (UniProt O00329)
pIC50: −log10 of the molar value.
Measurement label: pIC50

[[record]]
structure_smiles_string = "C[C@H](Nc1nc(N)nc(N)c1C#N)c1nc2c(F)ccc(F)c2c(=O)n1-c1cc(F)cc(F)c1"
measurement_label = "pIC50"
readout_value = "8.00 to 9.00"

[[record]]
structure_smiles_string = "CC[C@H](Nc1nc(N)nc(N)c1C#N)c1nc2c(C)cccc2c(=O)n1-c1cc(F)cc(F)c1"
measurement_label = "pIC50"
readout_value = "7.30 to 8.00"

[[record]]
structure_smiles_string = "C[C@H](Nc1nc(N)nc(N)c1C#N)c1nc2cccc(S(C)(=O)=O)c2c(=O)n1-c1c(F)cccc1F"
measurement_label = "pIC50"
readout_value = "8.00 to 9.00"

[[record]]
structure_smiles_string = "C[C@H](Nc1nc(N)nc(N)c1C#N)c1nc2c(F)cc(F)cc2c(=O)n1-c1cc(F)cc(F)c1"
measurement_label = "pIC50"
readout_value = "7.30 to 8.00"

[[record]]
structure_smiles_string = "CC[C@H](Nc1nc(N)nc(N)c1C#N)c1nc2c(Cl)cccc2c(=O)n1-c1cc(F)cc(F)c1"
measurement_label = "pIC50"
readout_value = "7.30 to 8.00"

[[record]]
structure_smiles_string = "C[C@H](Nc1nc(N)nc(N)c1C#N)c1nc2c(Cl)cccc2c(=O)n1-c1ccccc1"
measurement_label = "pIC50"
readout_value = "8.00 to 9.00"

[[record]]
structure_smiles_string = "C[C@H](Nc1nc(N)nc(N)c1C#N)c1nc2cccc(C(F)F)c2c(=O)n1-c1ccccc1"
measurement_label = "pIC50"
readout_value = "≥ 9.00"

[[record]]
structure_smiles_string = "Cc1ccc(F)c2nc([C@H](C)Nc3nc(N)nc(N)c3C#N)n(-c3cc(F)cc(F)c3)c(=O)c12"
measurement_label = "pIC50"
readout_value = "≥ 9.00"

